System: Cholecystokinin receptor type B (Cavia porcellus)
Test: Percent inhibition of specific [125I]Bolton-Hunter CCK-8 binding in guinea pig cortex at 10e-6 M
recorded metric: inhibition (%)

(I) Cc1ccccc1NC(=O)NCCCC[C@H](NC(=O)C(Cc1c[nH]c2ccccc12)NC(=O)OC(C)(C)C)C(=O)NCCC(=O)N(C)C(Cc1ccccc1)C(N)=O (stereo partly drawn)
(II) Cc1ccccc1NC(=O)NCCCC[C@H](NC(=O)C(Cc1c[nH]c2ccccc12)NC(=O)OC(C)(C)C)C(=O)N(C)CCC(=O)NC(Cc1ccccc1)C(N)=O (stereo partly drawn)
(III) Cc1ccccc1NC(=O)NCCCC[C@H](NC(=O)C(Cc1c[nH]c2ccccc12)NC(=O)OC(C)(C)C)C(=O)N(C)CCCC(=O)N(C)C(Cc1ccccc1)C(N)=O (stereo partly drawn)
(Q) Ranking criterion: inhibition, increasing numeric value. Items: as listed above. To answer, arrange all of the labels according to the requested order.
(A) III, I, II

====

Target: UniProt Q63931
Sequence (Q63931 whole entry): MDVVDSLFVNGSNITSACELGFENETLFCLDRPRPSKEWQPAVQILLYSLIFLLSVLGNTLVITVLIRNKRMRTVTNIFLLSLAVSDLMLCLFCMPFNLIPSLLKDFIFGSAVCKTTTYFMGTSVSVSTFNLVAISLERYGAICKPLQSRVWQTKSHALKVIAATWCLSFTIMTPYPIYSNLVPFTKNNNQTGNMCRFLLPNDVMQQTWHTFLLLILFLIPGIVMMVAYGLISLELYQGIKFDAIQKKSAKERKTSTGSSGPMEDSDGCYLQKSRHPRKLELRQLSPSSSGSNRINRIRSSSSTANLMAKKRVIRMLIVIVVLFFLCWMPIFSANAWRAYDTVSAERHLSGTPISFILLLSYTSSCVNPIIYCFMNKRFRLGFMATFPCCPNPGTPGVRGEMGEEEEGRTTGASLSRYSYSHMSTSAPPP
pIC50: −log10 of the molar value. Starred links: 1 amine or outer side, 2 acyl side, 3 side chain; linkers in the order of their positions; H or OH if unused. Non-standard residues stand in square brackets, D forms with d. Residues, ends and D or L forms follow the SMILES beside them. Groups on a side chain read outwards from the residue. ξ: configuration not given here. *: point of attachment. NMeF = CN[C@@H](Cc1ccccc1)C(=O)O; ξW = NC(Cc1c[nH]c2ccccc12)C(=O)O; NH(2-Me-phenyl) = Cc1ccccc1N*; ξNMeF = CNC(Cc1ccccc1)C(=O)O; β3hP = O=C(O)C[C@@H]1CCCN1; Boc = CC(C)(C)OC(=O)*; CO = O=C([*:1])[*:2]; Sar = CNCC(=O)O
recorded metric: pIC50

molecule | recorded number
Cc1ccccc1NC(=O)NCCCC[C@H](NC(=O)C(Cc1c[nH]c2ccccc12)NC(=O)OC(C)(C)C)C(=O)NCCCC(=O)N(C)C(Cc1ccccc1)C(N)=O (stereo not given in full) | 7.57
Cc1ccccc1NC(=O)NCCCC[C@H](NC(=O)[C@H](Cc1c[nH]c2ccccc12)NC(=O)OC(C)(C)C)C(=O)NCC(=O)N[C@@H](Cc1ccccc1)C(N)=O (Boc-WK([CO-NH(2-Me-phenyl)])GF-NH2) | 6.04
Cc1ccccc1NC(=O)NCCCC[C@H](NC(=O)C(Cc1c[nH]c2ccccc12)NC(=O)OC(C)(C)C)C(=O)NCCCC(=O)NC(Cc1ccccc1)C(N)=O (stereo not given in full) | 6.13
Cc1ccccc1NC(=O)NCCCC[C@H](NC(=O)C(Cc1c[nH]c2ccccc12)NC(=O)OC(C)(C)C)C(=O)NCCC(=O)NC(Cc1ccccc1)C(N)=O (stereo not given in full) | 6.90
Cc1ccccc1NC(=O)NCCCC[C@H](NC(=O)[C@H](Cc1c[nH]c2ccccc12)NC(=O)OC(C)(C)C)C(=O)N(C)CC(=O)N[C@@H](Cc1ccccc1)C(N)=O (Boc-WK([CO-NH(2-Me-phenyl)])[Sar]F-NH2) | 6.58
Cc1ccccc1NC(=O)NCCCC[C@H](NC(=O)[C@H](Cc1c[nH]c2ccccc12)NC(=O)OC(C)(C)C)C(=O)NCC(=O)N(C)[C@@H](Cc1ccccc1)C(N)=O (Boc-WK([CO-NH(2-Me-phenyl)])G[NMeF]-NH2) | 6.85
Cc1ccccc1NC(=O)NCCCC[C@H](NC(=O)[C@H](Cc1c[nH]c2ccccc12)NC(=O)OC(C)(C)C)C(=O)N(C)CC(=O)N(C)[C@@H](Cc1ccccc1)C(N)=O (Boc-WK([CO-NH(2-Me-phenyl)])[Sar][NMeF]-NH2) | 7.08

(P) Cc1ccccc1NC(=O)NCCCC[C@H](NC(=O)C(Cc1c[nH]c2ccccc12)NC(=O)OC(C)(C)C)C(=O)N(C)CCC(=O)NC(Cc1ccccc1)C(N)=O (stereo not given in full)
(Q) Cc1ccccc1NC(=O)NCCCC[C@H](NC(=O)C(Cc1c[nH]c2ccccc12)NC(=O)OC(C)(C)C)C(=O)N1CCC[C@H]1CC(=O)N(C)C(Cc1ccccc1)C(N)=O (stereo partly drawn) (Boc-[ξW]K([CO-NH(2-Me-phenyl)])[β3hP][ξNMeF]-NH2)
(R) Cc1ccccc1NC(=O)NCCCC[C@H](NC(=O)C(Cc1c[nH]c2ccccc12)NC(=O)OC(C)(C)C)C(=O)NCCCCC(=O)NC(Cc1ccccc1)C(N)=O (stereo not given in full)
(Q) Given 3 molecules, produce a descending ranking by pIC50. To answer, arrange all of the labels according to the requested order.
(A) Q, P, R
(Q: 7.77, P: 7.21, R: 5.74)
